# Tested on: α7 integrin promoter
# experiment-notes: muscle cell-based assay: α7βgal+/− myoblasts/myotubes, LacZ reporter, β-galactosidase cleavage of FDG
# Design: species or system mouse
# condition-notes: Table 12; key not given
Form field: Fit Curve Class (one value per entry).
# answer = number (no unit)

Solved cases below.
# compound, Fit Curve Class
data = [
    ("COc1ccc(-n2c(C)c(C(C)=O)c3cc(OC(C)=O)ccc32)cc1", 2.1),
    ("COCc1c(C(=O)OCc2nc(=O)c3sccc3[nH]2)oc2ccccc12", 1.1),
    ("CCc1nnc(NC(=O)c2ccc(S(=O)(=O)NCC(C)C)cc2)s1", 2.1),
    ("O=C(Nc1ccccc1F)c1ccc([N+](=O)[O-])s1", 2.1),
    ("NC(=O)c1nsc(C(=O)N(c2ccccc2)C(C(=O)NCc2ccc(F)cc2)c2ccc(O)cc2)c1N (stereo not drawn)", 1.1),
    ("O=C(Nc1ccc(Cl)cc1N1CCOCC1)C1CCCCC1", 2.1),
]

Measured Fit Curve Class, CC(OC(=O)c1cc(-c2cccnc2)nc2ccccc12)C(=O)Nc1ccc2ccccc2c1 (stereo not drawn) : 1.1

Measured Fit Curve Class, `COc1cc(/C=C2/C(=N)N3C(SC)=NSC3=NC2=O)ccc1OC(=O)c1ccco1` : 1.1

---

Form field: Fit HillSlope (one value per entry).
# Test system: α7 integrin promoter
# experiment-notes: muscle cell-based assay: α7βgal+/− myoblasts/myotubes, LacZ reporter, β-galactosidase cleavage of FDG
# Set-up: species or system mouse
# condition-notes: Table 12; curve fit
# answer = number (no unit)

Solved cases below.
# molecule, experimental-target, property, experimental-value
measured = [
    ("CC(C)CC1NC(=O)N(CC(=O)N2c3ccccc3NC(=O)C2(C)C)C1=O (centres unmarked) [Compound 21]", "α7 integrin promoter", "Fit HillSlope", 4.4495),
    ("Cc1cc(NC(=O)CCC(=O)N(Cc2cccnc2)C(C(=O)NC(C)(C)C)c2ccccc2Cl)no1 (centres unmarked) [Compound 29]", "α7 integrin promoter", "Fit HillSlope", 1.7885),
    ("O=[N+]([O-])c1ccc(Cl)cc1N/N=C/c1ccncc1 [Compound 112]", "α7 integrin promoter", "Fit HillSlope", 3.132),
    ("CCC(CC)C(=O)Nc1c(C(=O)N2CCN(c3ccccc3)CC2)oc2ccccc12 [Compound 73]", "α7 integrin promoter", "Fit HillSlope", 4.095),
    ("O=C(COc1cc2oc(=O)c3c(c2cc1Cl)CCCC3)NC[C@H]1CC[C@H](C(=O)O)CC1 [Compound 95]", "α7 integrin promoter", "Fit HillSlope", 1.01),
    ("C/C(CC(=O)Nc1ccc(Cl)c(C(F)(F)F)c1)=N\\NC(=O)c1cnccn1 [Compound 38]", "α7 integrin promoter", "Fit HillSlope", 4.9549),
    ("Cc1c(C(=O)O)cccc1-n1c(C)cc(/C=N/Nc2ccc([N+](=O)[O-])cn2)c1C [Compound 9]", "α7 integrin promoter", "Fit HillSlope", 1.3723),
    ("COC(=O)c1ccccc1NC(=O)c1cc[n+]([O-])cc1 [Compound 100]", "α7 integrin promoter", "Fit HillSlope", 1.01),
    ("COc1cc(C(C(=O)NC2CCCCC2)N(C(=O)c2snc(C(N)=O)c2N)c2ccc(C)cc2)ccc1O (centres unmarked) [Compound 71]", "α7 integrin promoter", "Fit HillSlope", 1.3443),
    ("COc1ccc2oc(C[S+]([O-])c3ccccc3)c(C(=O)O)c2c1 (centres unmarked) [Compound 109]", "α7 integrin promoter", "Fit HillSlope", 4.9549),
]

Measured Fit HillSlope, CCOC(=O)Cc1csc(NC(=S)NC(=O)c2cc(OC)c(OC)c(OC)c2)n1 [Compound 20] : 2.3031

Measured Fit HillSlope, CCCN(C(=O)c1ccc(S(=O)(=O)N2CCCC2)cc1)C1CCS(=O)(=O)C1 (centres unmarked) [Compound 89] : 1.6924

---

# Test system: α7 integrin promoter
# experiment-notes: muscle cell-based assay: α7βgal+/− myoblasts/myotubes, LacZ reporter, β-galactosidase cleavage of FDG
# Set-up: species or system mouse; scale not given here
# condition-notes: Myoblasts, 10 uM
Form field: Results in α7+/− β-galactosidase assay (one value per entry).
# answer = number (no unit)

# molecule, Results in α7+/− β-galactosidase assay
records = [
    ("N#Cc1ccc(Sc2nc3ccccc3[nH]2)cc1C#N [drawing 584]", 0.1199),
    ("COc1cc(C=O)ccc1OCC(=O)Nc1ccc2c(c1)OCO2 [drawing 633]", 0.09536),
    ("CN(/C(=N/S(=O)(=O)c1cccs1)c1ccccc1)c1ccccc1 [drawing 589]", "−0.01934"),
]

Measured Results in α7+/− β-galactosidase assay, c1ccc(-c2cn3c4c(sc3n2)CCCC4)cc1 [drawing 698] : 0.2239

Measured Results in α7+/− β-galactosidase assay, CCOC(=O)c1cc(-c2cccs2)nc2c1c(C)nn2-c1ccccn1 [drawing 670] : −0.2068

---

# Tested on: α7 integrin promoter
# experiment-notes: muscle cell-based assay: α7βgal+/− myoblasts/myotubes, LacZ reporter, β-galactosidase cleavage of FDG
# Parameters: species or system mouse
Form field: Fit HillSlope (one value per entry).
# answer = number (no unit)

# compound, Fit HillSlope
measured = [
    ("O=Cc1cn(Cc2ccc(F)cc2Cl)c2ccccc12", 4.095),
    ("Cc1nn(C(C)(C)C)c(C)c1/C=N/OC(=O)Nc1ccc(Cl)c(Cl)c1", 2.1211),
    ("Br.COc1ccc(C(=O)CN2CCCCC2)cc1", 4.9549),
    ("NS(=O)(=O)c1ccc(NC(=O)Nc2ccc(Cl)cc2)cc1", 1.8617),
    ("Cc1nc2c([nH]1)OC(N)=C(C#N)C21CCN(Cc2ccccc2)CC1", 4.9549),
]

α7 integrin promoter data for `O=C(Cn1nc(-c2ccc(Cl)cc2)ccc1=O)N1CCC2(CC1)OCCO2` ; its Fit HillSlope: 4.095

α7 integrin promoter data for `O=C(O)CCn1cc(/C=C2/NC(=S)N(c3ccccc3)C2=O)c(-c2ccccc2)n1` ; its Fit HillSlope: 4.095

α7 integrin promoter data for CNP(=O)(Oc1ccccc1)OC12CC3CC(CC(C3)C1)C2 (centres unmarked) ; its Fit HillSlope: 2.2481

---

# Tested on: α7 integrin promoter
# experiment-notes: muscle cell-based assay: α7βgal+/− myoblasts/myotubes, LacZ reporter, β-galactosidase cleavage of FDG
# Design: species or system mouse
# condition-notes: Table 12; key not given
property: Fit Curve Class

Solved cases below.
# compound, property, experimental-value
data = [
    ("CN(C)/C=N/c1nccc(-c2cccs2)n1 [Compound 121]", "Fit Curve Class", 2.1),
    ("CCOC(=O)Cc1csc(NC(=S)NC(=O)c2cc(OC)c(OC)c(OC)c2)n1 [Compound 20]", "Fit Curve Class", 1.1),
    ("C=CCN(CC=C)C(=O)c1ccc(OC2CCN(S(=O)(=O)N(C)C)CC2)cc1 [Compound 64]", "Fit Curve Class", 2.1),
    ("CC(C)(C)c1ccc(C(=O)OCC(=O)Nc2sc3c(c2C#N)CCC3)cc1 [Compound 85]", "Fit Curve Class", 2.1),
]

Measured Fit Curve Class, CC1CCN(S(=O)(=O)c2ccc(S(=O)(=O)N3CCCC3)cc2)CC1 [Compound 72] : 2.1

Measured Fit Curve Class, O=C(COc1cc2oc(=O)c3c(c2cc1Cl)CCCC3)NC[C@H]1CC[C@H](C(=O)O)CC1 [Compound 95] : 2.2

Measured Fit Curve Class, CCS(=O)(=O)N1CCCC(C(=O)c2ccc(OC)cc2C)C1 (stereo not shown) [Compound 83] : 2.1

Measured Fit Curve Class, CCNC(=O)CSc1nc(-c2ccc(F)cc2)cs1 [Compound 61] : 2.1

Measured Fit Curve Class, O=C(NCCc1ccccc1)C1CCC(=O)N1C1CCCC1 (stereo not shown) [Compound 104] : 2.1

---

# System: α7 integrin promoter
# experiment-notes: muscle cell-based assay: α7βgal+/− myoblasts/myotubes, LacZ reporter, β-galactosidase cleavage of FDG
# Set-up: species or system mouse; scale not given here
# condition-notes: Myoblasts, 10 uM
Classify on Results in α7+/− β-galactosidase assay using low: < -0.09; middle: ≥ -0.09 and < -0.02; high: ≥ -0.02

# molecule, assigned-class
measured = [
    ("Cc1ccc(/C=C2\\C(=O)Nc3ccccc32)o1 [drawing 564]", "low"),
    ("Cc1ccc(NS(=O)(=O)c2ccc(-c3ccc(O)nn3)o2)c(C)c1 [drawing 685]", "middle"),
    ("COc1cccc(CN2CCN(Cc3ccco3)CC2)c1.O=C(O)C(=O)O [drawing 530]", "middle"),
    ("COc1ccc(CN2CCNC(=O)C2CC(=O)NCCc2c[nH]c3ccccc23)c(OC)c1 (stereo not shown) [drawing 692]", "middle"),
    ("CCn1c(=O)c2cc(C(=O)N(C)c3cc(C)ccc3OC)sc2c2ccccc21 [drawing 636]", "low"),
]

Exam item: # classify by Results in α7+/− β-galactosidase assay band: NC(=O)c1sc2nc3c(cc2c1N)CCC3 [drawing 608]
Marked response: high

Exam item: # classify by Results in α7+/− β-galactosidase assay band: CCc1nc2ccccc2c(C(=O)NCc2ccccc2)c1C [drawing 669]
Marked response: middle

Exam item: # classify by Results in α7+/− β-galactosidase assay band: CC(C)(C)Nc1nc(-c2ccc3c(c2)CCN3C(=O)C2CC2)cs1 [drawing 553]
Marked response: high

Exam item: # classify by Results in α7+/− β-galactosidase assay band: Cc1cccc(Sc2nc(-c3ccccc3)ccc2C#N)c1 [drawing 598]
Marked response: high

Exam item: # classify by Results in α7+/− β-galactosidase assay band: Cc1ccc2c(c1)/C(=C/c1ccccc1F)C(=O)N2 [drawing 667]
Marked response: middle
